Below: compounds with Ki recorded for Adenosine receptor A2a (Homo sapiens, UniProt P29274) in separate published works.
Give the value in µM but do not write µM after it.

# input Request: Ki, test system Adenosine receptor A2a (Homo sapiens, UniProt P29274), entry Cn1c(=O)c2[nH]c(-c3ccc(OCC(=O)N4CCCCCC4)cc3)nc2n(C)c1=O
# output 0.273

# input For Adenosine receptor A2a (Homo sapiens, UniProt P29274), provide Ki of CCNC(=O)C1OC(n2cnc3c(N)nc(C#CC(C)O)nc32)C(O)C1O (centres undefined) please.
# output 0.014

# input Reported Ki for Adenosine receptor A2a (Homo sapiens, UniProt P29274), given CN(C)CCNC(=O)COc1cccc(-c2nc3c([nH]2)c(=O)n(C)c(=O)n3C)c1 ?
# output 0.163

# input # returns recorded Ki (system: Adenosine receptor A2a (Homo sapiens, UniProt P29274)) for CCNC(=O)C1OC(n2cnc3c(N)nc(C#Cc4ccccc4)nc32)C(O)C1O (centres undefined)
# Sequence (P29274 whole entry): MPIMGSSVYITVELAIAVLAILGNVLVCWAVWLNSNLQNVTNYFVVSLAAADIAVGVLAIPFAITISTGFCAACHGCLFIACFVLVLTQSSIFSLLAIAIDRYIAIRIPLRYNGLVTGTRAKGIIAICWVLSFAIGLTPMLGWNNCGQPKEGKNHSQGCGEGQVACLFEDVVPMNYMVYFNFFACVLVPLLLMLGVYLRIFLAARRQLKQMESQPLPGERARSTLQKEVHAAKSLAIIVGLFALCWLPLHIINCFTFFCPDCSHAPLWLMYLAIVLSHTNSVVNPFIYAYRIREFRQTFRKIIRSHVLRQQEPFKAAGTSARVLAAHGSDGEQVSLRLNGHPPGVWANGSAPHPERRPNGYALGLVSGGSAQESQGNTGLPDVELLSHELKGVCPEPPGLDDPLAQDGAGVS
# output 0.62

# input Param readout = Ki; param system = Adenosine receptor A2a (Homo sapiens, UniProt P29274); param query = CCNC(=O)C1OC(n2cnc3c(N)nc(C#CC(O)c4ccccc4)nc32)C(O)C1O (centres undefined) ; response: value
# output 0.0031

# input Request: Ki, test system Adenosine receptor A2a (Homo sapiens, UniProt P29274), entry CN(C)CCNC(=O)COc1ccc(-c2nc3c([nH]2)c(=O)n(C)c(=O)n3C)cc1
# output 0.1

# input Form field: Ki recorded for COC(=O)COc1ccc(-c2nc3c([nH]2)c(=O)n(C)c(=O)n3C)cc1 with Adenosine receptor A2a (Homo sapiens, UniProt P29274) (enter value)
# output 0.17

# input Please state recorded Ki (tested on Adenosine receptor A2a (Homo sapiens, UniProt P29274)) of Cc1cc(-c2sc(NC(=O)N3CCOC(C(N)=O)C3)nc2-c2cccc(C#N)c2)cc(C)n1 (centres undefined)
# output 0.002

# input For Adenosine receptor A2a (Homo sapiens, UniProt P29274), provide Ki of COc1cc(-c2nc3c([nH]2)c(=O)n(C)c(=O)n3C)ccc1OCC(=O)NCCN(C)C please.
# output 0.821

# input Checklist item: Ki tested on Adenosine receptor A2a (Homo sapiens, UniProt P29274), entry Cn1c(=O)c2[nH]c(-c3ccc(OCC(=O)N4CCCC4)cc3)nc2n(C)c1=O , value?
# output 0.122

# input Item CCn1c(=O)c2[nH]c(-c3ccccc3)nc2n(CC)c1=O with Adenosine receptor A2a (Homo sapiens, UniProt P29274) - Ki?
# output 0.21

# input Write down the reported Ki of Cc1cc(-c2sc(NC(=O)N3CC4(CNC(=O)C4)C3)nc2-c2cccc(C#N)c2)cc(C)n1 , test system: Adenosine receptor A2a (Homo sapiens, UniProt P29274).
# output 0.0006

# input Item: COc1ccc(-c2nc3c([nH]2)c(=O)n(C)c(=O)n3C)cc1OCC(=O)NCCN(C)C Test system: Adenosine receptor A2a (Homo sapiens, UniProt P29274) Read-out: Ki Value: ?
# output 0.075

# input Notebook entry, Adenosine receptor A2a (Homo sapiens, UniProt P29274) assay: Ki of O=c1nc2[nH]c3ccccc3nc-2c(=O)[nH]1 = ?
# output 2.72

# input So what Ki did Cn1c(=O)c2[nH]c(-c3ccc(C(=O)O)cc3)nc2n(C)c1=O get with Adenosine receptor A2a (Homo sapiens, UniProt P29274)?
# output 7.26

# input // fetch Adenosine receptor A2a (Homo sapiens, UniProt P29274) Ki for CCNC(=O)C1OC(n2cnc3c(N)nc(C#CC4=CCCCC4)nc32)C(O)C1O (centres undefined)
# output 0.1

# input Give recorded Ki with Adenosine receptor A2a (Homo sapiens, UniProt P29274) for the following compound: CCNC(=O)C1OC(n2cnc3c(N)nc(C#CC(C)(O)c4ccccc4)nc32)C(O)C1O (centres undefined)
# output 0.056
